Target: CDK4 CCND3 (human) (UniProt P11802+P30281)
Sequence (P11802 whole entry, looked up): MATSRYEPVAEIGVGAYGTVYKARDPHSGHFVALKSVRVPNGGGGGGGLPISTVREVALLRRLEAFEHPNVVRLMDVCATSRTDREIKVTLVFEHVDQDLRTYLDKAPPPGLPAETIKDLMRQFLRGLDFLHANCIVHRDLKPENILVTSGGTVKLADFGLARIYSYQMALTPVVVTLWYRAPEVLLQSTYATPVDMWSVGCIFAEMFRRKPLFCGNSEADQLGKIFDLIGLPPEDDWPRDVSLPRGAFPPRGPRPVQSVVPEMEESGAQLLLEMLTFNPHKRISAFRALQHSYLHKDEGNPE
Sequence (P30281 whole entry, looked up): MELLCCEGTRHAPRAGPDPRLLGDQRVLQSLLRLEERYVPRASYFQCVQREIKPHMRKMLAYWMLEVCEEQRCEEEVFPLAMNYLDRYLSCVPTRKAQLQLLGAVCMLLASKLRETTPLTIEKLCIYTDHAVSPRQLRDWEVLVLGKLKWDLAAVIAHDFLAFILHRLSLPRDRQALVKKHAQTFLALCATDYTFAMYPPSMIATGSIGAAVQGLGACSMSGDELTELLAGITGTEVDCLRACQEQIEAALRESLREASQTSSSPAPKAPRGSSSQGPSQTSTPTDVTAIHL
Test: KINOMEscan competition binding
Conditions: compound 10.0 µM
Please respond with reported per cent of control for every item in the list.
Reply numerically in %, unit not repeated.

Kindly indicate its recorded per cent of control. Item: CCC(=O)N1CCN(c2ccc(-n3c(=O)ccc4cnc5ccc(-c6cnc7ccccc7c6)cc5c43)cc2C(F)(F)F)CC1
87

Annotate the compound COC(=O)Nc1ccc(-c2nc(N3CCOCC3)c3cnn(C4CCN(C(=O)OC)CC4)c3n2)cc1 with its measured per cent of control.
100

Identify the reported per cent of control for the following entry. CC(C)n1nc(-c2cc3cc(O)ccc3[nH]2)c2c(N)ncnc21
57

Give recorded per cent of control. COc1ccc(-c2ccc3c(N4CCOCC4)nc(N4C[C@@H](C)O[C@@H](C)C4)nc3n2)cc1CO
80
